# experimentalSystem: recombinant NS3 protease with the NS4A peptide cofactor … (molar ratio enzyme:cofactor 1:100) (hepatitis C virus genotype 1b)
# runDescription: cell-based or functional assay
*1 amine or outer side, *2 acyl side, *3 side chain or, on linkers, in order; H or OH if unused. Where no end group is shown, it is not given here. [ ]: non-standard residue; d: D form. Suc = O=C(CCC(=O)[*:2])[*:1]; Tle = CC(C)(C)[C@H](N)C(=O)O; Ac5c = NC1(C(=O)O)CCCC1; Ac3c = NC1(C(=O)O)CC1
Note to self: IC50 under 50 µM means TRUE, ties and anything higher get FALSE.

Example entries and their recorded answers appear below.
| binder | classification |
| --- | --- |
| Ac-D[dD]IVPC [Compound 104 (Table 1): Ac-Asp-D-Asp-Ile-Val-Pro-Cys] | TRUE |
| Suc-DIVPC [Compound 103 (Table 1): DAD-Asp-Ile-Val-Pro-Cys] | TRUE |
| Ac-D[Tle]IVPC [Compound 108 (Table 1): Ac-Asp-Tbg-Ile-Val-Pro-Cys] | TRUE |
| Ac-DDIVP[Ac3c] [Compound 126 (Table 1): Ac-Asp-Asp-Ile-Val-Pro-Acca] | TRUE |
| Ac-D[dE]IVPC [Compound 105 (Table 1): Ac-Asp-D-Glu-Ile-Val-Pro-Cys] | TRUE |

Strictly below 50 µM in IC50? Ac-DD[Tle]VPC [Compound 111 (Table 1): Ac-Asp-Asp-Tbg-Val-Pro-Cys]
FALSE

Strictly below 50 µM in IC50? Ac-DDIVP[Ac5c] [Compound 125 (Table 1): Ac-Asp-Asp-Ile-Val-Pro-Acpe]
FALSE
